Data provenance is patent US12577234B2.

Items are presented alongside their recorded IC50.
- System: human mAChR M4 (Homo sapiens, UniProt P08173)
- Construct: expressed in transfected cells; host or cells: CHO-K1 (ATCC), stably co-expressing chimeric G protein Gqi5
- Measurement notes: mAChR M4 cell-based functional assay (calcium mobilization, EC80 acetylcholine), human M4
- Reported conditions: Table 9; M4/Gqi5/CHO-K1 cells, decrease of EC80 acetylcholine response
Endpoint label: IC50 (µM)

[
  {
    "Compound": "Cc1cccnc1CN1C[C@H]2CC(COc3ccc(-c4cc(F)ccc4Cl)nn3)C[C@H]2C1 (stereo partly shown)",
    "Endpoint label": "IC50",
    "Reported value": 0.694
  },
  {
    "Compound": "Cc1cnn(C)c1-c1ccc(NC[C@H]2C[C@@H]3CN(CC(C)C(C)(C)C)C[C@@H]3C2)nn1 (stereo partly shown)",
    "Endpoint label": "IC50",
    "Reported value": 0.253
  },
  {
    "Compound": "Cc1nn(C)cc1-c1ccc(NCC2C[C@@H]3CN(CC(C)C(C)(C)C)C[C@@H]3C2)nn1 (stereo partly shown)",
    "Endpoint label": "IC50",
    "Reported value": 0.108
  },
  {
    "Compound": "Cc1nn(C)cc1-c1ccc(O[C@@H]2C[C@@H]3CN(CC4CCOCC4)C[C@@H]3C2)nn1",
    "Endpoint label": "IC50",
    "Reported value": 6.03
  }
]

----------
- System: human mAChR M4 (Homo sapiens, UniProt P08173)
- Construct: expressed in transfected cells; host or cells: CHO-K1 (ATCC), stably co-expressing chimeric G protein Gqi5
- Sequence (P08173 1-479): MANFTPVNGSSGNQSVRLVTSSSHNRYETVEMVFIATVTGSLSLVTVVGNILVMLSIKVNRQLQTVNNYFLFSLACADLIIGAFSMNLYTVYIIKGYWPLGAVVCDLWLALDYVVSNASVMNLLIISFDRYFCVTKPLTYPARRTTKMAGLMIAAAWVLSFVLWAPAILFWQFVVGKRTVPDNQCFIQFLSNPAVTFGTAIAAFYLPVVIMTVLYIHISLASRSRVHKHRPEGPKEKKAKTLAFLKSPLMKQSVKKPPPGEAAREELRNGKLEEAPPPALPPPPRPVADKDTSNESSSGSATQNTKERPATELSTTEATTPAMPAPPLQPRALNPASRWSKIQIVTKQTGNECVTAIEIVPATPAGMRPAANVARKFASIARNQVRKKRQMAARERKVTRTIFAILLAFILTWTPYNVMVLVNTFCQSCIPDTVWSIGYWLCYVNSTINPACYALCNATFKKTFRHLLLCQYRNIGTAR
- Measurement notes: mAChR M4 cell-based functional assay (calcium mobilization, EC80 acetylcholine), human M4
- Reported conditions: Table 9; human M4; % ACh maximum at 30 μM
- Method: Human or rat M4 cDNA, along with the chimeric G protein Gqi5, were transfected into Chinese hamster ovary (CHO-K1) cells purchased from the American Type Culture Collection using Lipofectamine2000. […] Calcium flux was measured using the Functional Drug Screening System (FDSS) 6000 or 7000 (Hamamatsu Corporation, Tokyo, Japan) as an increase in the fluorescent static ratio. […] Agonist activity was analyzed as a concentration-dependent increase in calcium mobilization upon compound addition. […]
Recorded Emin values for a group of molecules are listed next.

[
  {
    "Molecule": "Cc1nn(C)cc1-c1ccc(O[C@@H]2C[C@@H]3CN(CC(C)C(C)(C)C)C[C@@H]3C2)nn1 (stereo partly shown)",
    "Emin, %": 4.08
  },
  {
    "Molecule": "Cc1cnn(C)c1-c1ccc(NCCC2C[C@@H]3CN(Cc4ccccc4F)C[C@@H]3C2)nn1 (stereo partly shown)",
    "Emin, %": 4.93
  },
  {
    "Molecule": "Fc1ccc(Cl)c(-c2ccc(OCC3C[C@@H]4CN(Cc5ccccc5F)C[C@@H]4C3)nn2)c1 (stereo partly shown)",
    "Emin, %": 9.93
  },
  {
    "Molecule": "CCCC(C)CN1C[C@H]2CC(COc3ccc(-c4cc(F)ccc4Cl)nn3)C[C@H]2C1 (stereo partly shown)",
    "Emin, %": 4.60
  },
  {
    "Molecule": "CCC(C)CN1C[C@H]2CC(COc3ccc(-c4cn(C)nc4C)nn3)C[C@H]2C1 (stereo partly shown)",
    "Emin, %": 4.74
  },
  {
    "Molecule": "Cc1cnn(C)c1-c1ccc(OCC2C[C@@H]3CN(CCC(C)(C)C)C[C@@H]3C2)nn1 (stereo partly shown)",
    "Emin, %": 4.35
  },
  {
    "Molecule": "Fc1ccc(Cl)c(-c2ccc(O[C@@H]3C[C@@H]4CN(CC5CCCCC5)C[C@@H]4C3)nn2)c1",
    "Emin, %": 3.63
  },
  {
    "Molecule": "Fc1ccc(Cl)c(-c2ccc(N[C@H]3C[C@@H]4CN(CC5CCCCC5)C[C@@H]4C3)nn2)c1",
    "Emin, %": 4.96
  },
  {
    "Molecule": "Cc1cnn(C)c1-c1ccc(N[C@H]2C[C@@H]3CN(Cc4ccccc4)C[C@@H]3C2)nn1",
    "Emin, %": 3.85
  },
  {
    "Molecule": "Cc1nn(C)cc1-c1ccc(N[C@H]2C[C@@H]3CN(Cc4ccccc4)C[C@@H]3C2)nn1",
    "Emin, %": 3.22
  },
  {
    "Molecule": "Fc1ccc(Cl)c(-c2ccc(N[C@H]3C[C@@H]4CN(CC5CCOCC5)C[C@@H]4C3)nn2)c1",
    "Emin, %": 4.92
  },
  {
    "Molecule": "Fc1ccc(Cl)c(-c2ccc(N[C@H]3C[C@@H]4CN(CC5CCCOC5)C[C@@H]4C3)nn2)c1 (stereo partly shown)",
    "Emin, %": 6.3
  },
  {
    "Molecule": "Cc1nn(C)cc1-c1ccc(N[C@H]2C[C@@H]3CN(CC4CCOCC4)C[C@@H]3C2)nn1",
    "Emin, %": 2.98
  },
  {
    "Molecule": "Cc1cnn(C)c1-c1ccc(NC[C@H]2C[C@@H]3CN(CC4CC5C=CC4C5)C[C@@H]3C2)nn1 (stereo partly shown)",
    "Emin, %": 3.74
  },
  {
    "Molecule": "Cc1cccnc1CN1C[C@H]2C[C@H](CNc3ccc(-c4cn(C)nc4C)nn3)C[C@H]2C1",
    "Emin, %": 9.23
  },
  {
    "Molecule": "Cc1nn(C)cc1-c1ccc(O[C@@H]2C[C@@H]3CN(CCC(C)(C)C)C[C@@H]3C2)nn1",
    "Emin, %": 3.79
  },
  {
    "Molecule": "Fc1ccc(Cl)c(-c2ccc(N[C@H]3C[C@@H]4CN(CC5CC6C=CC5C6)C[C@@H]4C3)nn2)c1 (stereo partly shown)",
    "Emin, %": 5.94
  },
  {
    "Molecule": "Cc1nn(C)cc1-c1ccc(O[C@@H]2C[C@@H]3CN(CC4CC5C=CC4C5)C[C@@H]3C2)nn1 (stereo partly shown)",
    "Emin, %": 3.08
  },
  {
    "Molecule": "CC(CN1C[C@H]2C[C@@H](Oc3ccc(-c4cc(F)ccc4Cl)nn3)C[C@H]2C1)C(C)(C)C (stereo partly shown)",
    "Emin, %": 3.60
  },
  {
    "Molecule": "Fc1ccc(Cl)c(-c2ccc(N[C@H]3C[C@@H]4CN(CC56CC7CC(CC(C7)C5)C6)C[C@@H]4C3)nn2)c1",
    "Emin, %": 3.20
  },
  {
    "Molecule": "CC(C)(C)CCN1C[C@H]2C[C@H](Nc3ccc(-c4cc(F)ccc4Cl)nn3)C[C@H]2C1",
    "Emin, %": 3.53
  },
  {
    "Molecule": "CCC(C)CN1C[C@H]2CC(COc3ccc(-c4c(C)cnn4C)nn3)C[C@H]2C1 (stereo partly shown)",
    "Emin, %": 4.54
  },
  {
    "Molecule": "Cc1nn(C)cc1-c1ccc(N[C@@H]2C[C@@H]3CN(CC4CC5C=CC4C5)C[C@@H]3C2)c(F)c1F (stereo partly shown)",
    "Emin, %": 4.00
  },
  {
    "Molecule": "CCCC(C)CN1C[C@H]2C[C@H](Nc3ccc(-c4cc(F)ccc4Cl)nn3)C[C@H]2C1 (stereo partly shown)",
    "Emin, %": 2.88
  },
  {
    "Molecule": "Cc1cccnc1CN1C[C@H]2CC(COc3ccc(-c4c(C)cnn4C)nn3)C[C@H]2C1 (stereo partly shown)",
    "Emin, %": 7.98
  },
  {
    "Molecule": "Cc1cnn(C)c1-c1ccc(OCC2C[C@@H]3CN(CC4CC5C=CC4C5)C[C@@H]3C2)nn1 (stereo partly shown)",
    "Emin, %": 4.07
  },
  {
    "Molecule": "O=C(Nc1ccc(-c2ccc(F)cc2Cl)nn1)C1C[C@@H]2CN(CC3CC4C=CC3C4)C[C@@H]2C1 (stereo partly shown)",
    "Emin, %": 3.25
  },
  {
    "Molecule": "Cc1nn(C)cc1-c1ccc(N[C@H]2C[C@@H]3CN(CC4CCCOC4)C[C@@H]3C2)nn1 (stereo partly shown)",
    "Emin, %": 3.33
  }
]
